Items are presented alongside their recorded z-score.
- assay-name: basal RPMI8226 viability, no added stimulus, profiling panel, cell-based, calcein-AM fluorescence, 48 h, PK04 Diversity Set (AID 1166);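 note: cells grown under basal conditions without added stimulus; test concentration not given here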
- test-settings: RPMI8226 myeloma viability, higher = more signal
Lab note: jot down the number only; don't add units.

compound	measured-number
CCC1=C2CN(Cc3ccccc3Br)[C@@H]([C@@H](O)Cc3ccccc3)C2C=CCC1 (stereo partly specified)	-3.99
COC(=O)[C@@]1(Cc2ccccc2)[C@H]2c3cc(C(=O)N4CCCC4)n(CCN4CNCC4=O)c3C[C@H]2CN1C(=O)c1ccccc1	0.261
CCOC(=O)C[C@H]1[C@H](OC(=O)c2cc3ccccc3oc2=O)[C@@H](NC(=O)c2ccc3ccccc3c2)c2cc(OCCCO)ccc2N1C(=O)c1ccc2ccccc2n1	0.167
COCCOC(=O)N1C(=O)[C@@]2(c3cc(C#CC4=CCCCC4)ccc31)[C@H](C(=O)NC[C@H](O)c1ccccc1)[C@H]1C(=O)O[C@H](c3ccccc3)[C@H](c3ccccc3)N1[C@@H]2c1ccccc1OCCO	-4.04
Cc1ccc(S(=O)(=O)N[C@H]2COC(=O)CC=C[C@H](C)COC(=O)N[C@@H](C)C(=O)CC=C[C@@H]2C)cc1	-0.558

Okay, now this compound:
Field z-score (entry `COC(=O)[C@@]1(Cc2ccccc2CN=[N+]=[N-])N=C(c2ccc(OCCCO)cc2)O[C@H]1c1ccccc1N=[N+]=[N-]` ) reads -3.63

Reference for the values: PubChem BioAssay
